experimentalTarget: T1, human IGF2^1-67 (mature insulin-like growth factor 2) (human, UniProt P01344 25-91, biotinylated (site not stated) where immobilised on the chip (Tables 1-4))
T1 construct: mature; also called mature IGF2; biotinylated IGF2
T1 sequence (P01344 25-91): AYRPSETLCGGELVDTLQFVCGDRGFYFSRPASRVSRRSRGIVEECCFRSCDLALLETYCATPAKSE
assayInfo: SPR steady state, biotin-IGF2 on chip, pH 7.4
Returns the class for an entry based on its Kd. Class ranges: lower level = under 2 nM, middle level = from 2 nM up to 5 nM, upper level = 5 nM and over

binder	categoryLabel
domain 11^AB5 P1597K S1602H (receptor, See m5) MKSNEHDDCQVTNPSTGHLFDLSSLSGRAGFTAAYAKGWGVYMSICGENENCPPGVGACFGQTRISVGKANKRLRYVDQVLQLVYKDGSKCPSKHGLSYKSVISFVCRPEAGPTNRPMLISLDKQTCTLFFSWHTPLACEQATECSV	upper level
domain 11^AB5 Q1569R P1597H (receptor, See m5) MKSNEHDDCQVTNPSTGHLFDLSSLSGRAGFTAAYAKGWGVYMSICGENENCPPGVGACFGRTRISVGKANKRLRYVDQVLQLVYKDGSHCPSKSGLSYKSVISFVCRPEAGPTNRPMLISLDKQTCTLFFSWHTPLACEQATECSV	upper level
domain 11^AB3 Q1569R P1597H S1602H G1603K (receptor, See m5) MKSNEHDDCQVTNPSTGHLFDLSSLSGRAGFTAAYSKSGVVYMSICGENENCPPGVGACFGRTRISVGKANKRLRYVDQVLQLVYKDGSHCPSKHKLSYKSVISFVCRPEAGPTNRPMLISLDKQTCTLFFSWHTPLACEQATECSV	lower level
domain 11^AB3 Q1569R P1597K S1602H G1603K (receptor, See m5) MKSNEHDDCQVTNPSTGHLFDLSSLSGRAGFTAAYSKSGVVYMSICGENENCPPGVGACFGRTRISVGKANKRLRYVDQVLQLVYKDGSKCPSKHKLSYKSVISFVCRPEAGPTNRPMLISLDKQTCTLFFSWHTPLACEQATECSV	lower level
domain 11^AB3 Q1569R P1597K (receptor, See m5) MKSNEHDDCQVTNPSTGHLFDLSSLSGRAGFTAAYSKSGVVYMSICGENENCPPGVGACFGRTRISVGKANKRLRYVDQVLQLVYKDGSKCPSKSGLSYKSVISFVCRPEAGPTNRPMLISLDKQTCTLFFSWHTPLACEQATECSV	middle level
domain 11^AB3 P1597H K1631W (receptor, See m5) MKSNEHDDCQVTNPSTGHLFDLSSLSGRAGFTAAYSKSGVVYMSICGENENCPPGVGACFGQTRISVGKANKRLRYVDQVLQLVYKDGSHCPSKSGLSYKSVISFVCRPEAGPTNRPMLISLDWQTCTLFFSWHTPLACEQATECSV	upper level
domain 11^AB3 Q1569R P1597K S1602H (receptor, See m5) MKSNEHDDCQVTNPSTGHLFDLSSLSGRAGFTAAYSKSGVVYMSICGENENCPPGVGACFGRTRISVGKANKRLRYVDQVLQLVYKDGSKCPSKHGLSYKSVISFVCRPEAGPTNRPMLISLDKQTCTLFFSWHTPLACEQATECSV	lower level
domain 11^AB5 P1597H (receptor, See m5) MKSNEHDDCQVTNPSTGHLFDLSSLSGRAGFTAAYAKGWGVYMSICGENENCPPGVGACFGQTRISVGKANKRLRYVDQVLQLVYKDGSHCPSKSGLSYKSVISFVCRPEAGPTNRPMLISLDKQTCTLFFSWHTPLACEQATECSV	middle level
domain 11^AB3 Q1569R (receptor, See m5; also called AB3 + 73E (CD-Q1569R)) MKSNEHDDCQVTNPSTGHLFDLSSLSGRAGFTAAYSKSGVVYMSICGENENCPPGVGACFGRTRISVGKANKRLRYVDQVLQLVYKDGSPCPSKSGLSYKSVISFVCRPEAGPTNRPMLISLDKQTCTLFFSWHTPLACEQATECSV	middle level
IGF2R domain 11^AB5 (receptor, His6-tagged soluble domain 11; also called 1542YAKGWG1547) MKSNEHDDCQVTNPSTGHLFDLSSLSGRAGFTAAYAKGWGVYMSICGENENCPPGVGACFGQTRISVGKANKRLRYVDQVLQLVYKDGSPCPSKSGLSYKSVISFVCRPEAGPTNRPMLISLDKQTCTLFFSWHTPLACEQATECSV	upper level
domain 11^AB5 P1597L (receptor, See m5) MKSNEHDDCQVTNPSTGHLFDLSSLSGRAGFTAAYAKGWGVYMSICGENENCPPGVGACFGQTRISVGKANKRLRYVDQVLQLVYKDGSLCPSKSGLSYKSVISFVCRPEAGPTNRPMLISLDKQTCTLFFSWHTPLACEQATECSV	middle level
domain 11^AB5 P1597A (receptor, See m5) MKSNEHDDCQVTNPSTGHLFDLSSLSGRAGFTAAYAKGWGVYMSICGENENCPPGVGACFGQTRISVGKANKRLRYVDQVLQLVYKDGSACPSKSGLSYKSVISFVCRPEAGPTNRPMLISLDKQTCTLFFSWHTPLACEQATECSV	upper level
domain 11^AB5 Q1569R P1597K S1602H (receptor, See m5) MKSNEHDDCQVTNPSTGHLFDLSSLSGRAGFTAAYAKGWGVYMSICGENENCPPGVGACFGRTRISVGKANKRLRYVDQVLQLVYKDGSKCPSKHGLSYKSVISFVCRPEAGPTNRPMLISLDKQTCTLFFSWHTPLACEQATECSV	middle level

Where these numbers come from: patent US20180237497A1
